Could you please report measured pIC50 for the items listed next?
target: Human CD73 (Homo sapiens, UniProt P21589); construct: purchased R&D Systems; host or cells: CHO cells; experiment: CD73 Enzyme Assay; format: biochemical; settings: 0.25 nM hCD73, 25 μM AMP, kinetic read at 360 nm; read-out: CD73 Enzyme Assay IC50
pIC50: −log10 of the molar value.

GET /values?readout=pIC50&item= O=P(O)(O)CS(=O)(=O)C[C@H]1O[C@@H](n2ccc3c(NC4CCCCC4)nc(Cl)nc32)[C@H](O)[C@@H]1O
> 8.00

And for C[C@H](O)C#Cc1nc(NC2CCCC2)c2ccn([C@@H]3O[C@H](COCP(=O)(O)O)[C@@H](O)[C@H]3O)c2n1 ?
> 8.00

And for O=P(O)(O)CS(=O)(=O)C[C@H]1O[C@@H](n2ccc3c(NC4CCCC4)nc(C(F)F)nc32)[C@H](O)[C@@H]1O ?
> 8.00

---

molecular target: Human CD73 (Homo sapiens, UniProt P21589); construct: purchased R&D Systems; host or cells: CHO cells; experiment: CD73 Enzyme Assay; format: biochemical; details: read-out: IC50
assay_endpoint: pIC50
Please report pIC50 as the negative decimal logarithm of the molar concentration, giving only the number.

Under Human CD73 (Homo sapiens, UniProt P21589): pIC50 value of Nc1ncnc2c1ncn2[C@@H]1O[C@H](COP(=O)(O)CP(=O)(O)O)[C@@H](O)[C@H]1O [adenosine 5′-(α,β-methylene)diphosphate, reference compound] ?
7.30

---

molecular target: Human CD73 (Homo sapiens); construct: purchased R&D Systems; host or cells: CHO cells; experiment: CD73 Enzyme Assay; assay type: biochemical; conditions: 0.25 nM hCD73, 25 μM AMP, kinetic read at 360 nm; read-out: CD73 Enzyme Assay IC50
pIC50: −log10 of the molar value.
Could you please report measured pIC50 for the items listed next?

GET /values?readout=pIC50&item= O=P(O)(O)COC[C@H]1O[C@@H](n2cnc3c(NC4(c5ccccc5)CC4)ncnc32)[C@H](O)[C@@H]1O
< 6.00

And for C[C@@H](Nc1nc(C#N)nc2c1ccn2[C@@H]1O[C@H](COCP(=O)(O)O)[C@@H](O)[C@H]1O)c1ccccc1 ?
> 8.00

And for O=P(O)(O)COC[C@H]1O[C@@H](n2ccc3c(NC4CCC(F)(F)C4)nc(Cl)nc32)[C@H](O)[C@@H]1O (stereo partly drawn) ?
> 8.00

And for O=P(O)(O)COC[C@H]1O[C@H](c2csc3c(N4CC5CCCC5C4)nc(Cl)nc23)[C@H](O)[C@@H]1O (stereo partly drawn) ?
< 6.00

And for C[C@@H](Nc1nc(Cl)nc2c1ccn2[C@@H]1O[C@H](COCP(=O)(O)O)[C@@H](O)[C@H]1O)c1ccc(F)cc1F ?
> 8.00

And for O=P(O)(O)CP(=O)(O)OC[C@H]1O[C@@H](n2ccc3c(NC4CCCC4)nc(Cl)nc32)[C@H](O)[C@@H]1O ?
> 8.00

---

Could you please report measured pIC50 for the items listed next?
target: CD73 on U138 human neuroglioma cells (Homo sapiens); construct: U138 cells were obtained from ATCC and cultured in DMEM with 10% FBS; host or cells: U138 human neuroglioma cells; assay: CD73 Cell-Based Assay; conditions: U138 cells, AMP substrate, 2 hours at 37° C., inorganic phosphate by malachite green
pIC50: −log10 of the molar value.

GET /values?readout=pIC50&item= C[C@H](c1ccccc1)N(C)c1nc(Cl)nc2c1ccn2[C@@H]1O[C@H](COCP(=O)(O)OCOC(=O)C(C)(C)C)[C@@H](O)[C@H]1O [Compound 132]
7.00 to 8.00

And for C[C@@H](Nc1nc(C#N)nc2c1ccn2[C@@H]1O[C@H](COCP(=O)(O)O)[C@@H](O)[C@H]1O)c1ccccc1 [Compound 62] ?
> 8.00

And for Cc1ccc([C@@H](C)Nc2nc(Cl)nc3c2ccn3[C@@H]2O[C@H](COCP(=O)(O)O)[C@@H](O)[C@H]2O)cc1 [Compound 136] ?
> 8.00

---

Target: CD73 on U138 human neuroglioma cells (Homo sapiens, UniProt P21589)
Construct: U138 cells were obtained from ATCC and cultured in DMEM with 10% FBS; host or cells: U138 human neuroglioma cells
Sequence (P21589 27-549): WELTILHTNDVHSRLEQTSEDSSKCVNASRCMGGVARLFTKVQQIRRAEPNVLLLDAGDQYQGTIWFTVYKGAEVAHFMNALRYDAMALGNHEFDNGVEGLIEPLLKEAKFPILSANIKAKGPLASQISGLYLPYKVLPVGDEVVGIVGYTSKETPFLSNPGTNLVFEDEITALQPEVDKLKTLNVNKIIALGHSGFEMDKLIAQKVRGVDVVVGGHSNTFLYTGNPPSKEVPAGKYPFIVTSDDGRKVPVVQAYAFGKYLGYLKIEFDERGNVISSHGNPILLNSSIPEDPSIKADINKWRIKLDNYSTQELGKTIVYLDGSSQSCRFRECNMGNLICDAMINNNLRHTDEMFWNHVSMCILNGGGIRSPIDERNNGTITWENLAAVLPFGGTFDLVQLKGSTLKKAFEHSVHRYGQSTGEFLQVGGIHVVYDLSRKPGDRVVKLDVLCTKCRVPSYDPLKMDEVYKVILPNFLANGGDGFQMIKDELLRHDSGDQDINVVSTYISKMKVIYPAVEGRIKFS
Assay: CD73 Cell-Based Assay
Conditions: U138 cells, AMP substrate, 2 hours at 37° C., inorganic phosphate by malachite green
pIC50: −log10 of the molar value.
Could you please report measured pIC50 for the items listed next?

GET /values?readout=pIC50&item= O=P(O)(O)COC[C@H]1O[C@@H](n2ccc3c(NCc4ccccc4)nc(Cl)nc32)[C@H](O)[C@@H]1O
7.00 to 8.00

And for N#Cc1nc(N2CC3CC3C2)c2cnn([C@@H]3O[C@H](CS(=O)(=O)CP(=O)(O)O)[C@@H](O)[C@H]3O)c2n1 (some centres unmarked) ?
7.00 to 8.00

And for N#Cc1nc(NC2CCOCC2)c2ccn([C@@H]3O[C@H](COCP(=O)(O)O)[C@@H](O)[C@H]3O)c2n1 ?
7.00 to 8.00

And for Cc1ccc([C@@H](C)Nc2nc(C#N)nc3c2ccn3[C@@H]2O[C@H](COCP(=O)(O)O)[C@@H](O)[C@H]2O)cc1 ?
> 8.00

And for CNc1nc(Cl)nc2c1ccn2[C@@H]1O[C@H](COCP(=O)(O)O)[C@@H](O)[C@H]1O ?
6.00 to 7.00

And for C[C@H](Nc1nc(C#N)nc2c1ccn2[C@@H]1O[C@H](COCP(=O)(O)O)[C@@H](O)[C@H]1O)c1ccc(F)cc1F ?
> 8.00

And for O=P(O)(O)COC[C@H]1O[C@@H](n2ncc3c(NC4CCC4)nc(Cl)nc32)[C@H](O)[C@@H]1O ?
> 8.00

And for C[C@@H](Nc1nc(C#N)nc2c1ccn2[C@@H]1O[C@H](COCP(=O)(O)O)[C@@H](O)[C@H]1O)c1ccc(C2CC2)cc1 ?
> 8.00

And for O=P(O)(O)COC[C@H]1O[C@@H](n2ncc3c(NC4CCCC4)nc(Cl)nc32)[C@H](O)[C@@H]1O ?
> 8.00

And for O=P(O)(O)CS(=O)(=O)C[C@H]1O[C@@H](n2ccc3c(NC4CCCCC4)nc(Cl)nc32)[C@H](O)[C@@H]1O ?
> 8.00

And for O=P(O)(O)COC[C@H]1O[C@@H](n2ccc3c(Sc4ccccc4)nc(Cl)nc32)[C@H](O)[C@@H]1O ?
6.00 to 7.00

And for C[C@@H](Nc1nc(C#N)nc2c1ccn2[C@@H]1O[C@H](COCP(=O)(O)O)[C@@H](O)[C@H]1O)c1ccccc1F ?
> 8.00

And for O=P(O)(O)COC[C@H]1O[C@@H](n2ccc3c(NC4CCCC4)nc(C#CCO)nc32)[C@H](O)[C@@H]1O ?
> 8.00

And for N#Cc1nc(NC2CC(F)(F)C2)c2cnn([C@@H]3O[C@H](CS(=O)(=O)CP(=O)(O)O)[C@@H](O)[C@H]3O)c2n1 ?
> 8.00

And for O=P(O)(O)COC[C@H]1O[C@@H](n2ncc3c(N4CC5CC5C4)nc(Cl)nc32)[C@H](O)[C@@H]1O (some centres unmarked) ?
> 8.00

And for C[C@H](Nc1nc(Cl)nc2c1ccn2[C@@H]1O[C@H](COCP(=O)(O)O)[C@@H](O)[C@H]1O)c1ccc(F)cn1 ?
7.00 to 8.00

And for O=P(O)(O)COC[C@H]1O[C@@H](n2ccc3c(N4CCCC4)nc(Cl)nc32)[C@H](O)[C@@H]1O ?
> 8.00

And for CC(C)OP(=O)(O)CS(=O)(=O)C[C@H]1O[C@@H](n2ccc3c(NC4CCCC4)nc(Cl)nc32)[C@H](O)[C@@H]1O ?
6.00 to 7.00

And for O=P(O)(O)COC[C@H]1O[C@@H](n2ccc3c(NC4CC(F)(F)C4)nc(Cl)nc32)[C@H](O)[C@@H]1O ?
> 8.00

And for O=P(O)(O)COC[C@H]1O[C@@H](n2cnc3c(NCc4ccccc4)ncnc32)[C@H](O)[C@@H]1O ?
< 6.00

And for CC(C)[C@@H](Nc1nc(Cl)nc2c1ccn2[C@@H]1O[C@H](COCP(=O)(O)O)[C@@H](O)[C@H]1O)c1ccccc1 ?
> 8.00

And for O=P(O)(O)COC[C@H]1O[C@@H](n2ccc3c(N4CCC(F)(F)C4)nc(Cl)nc32)[C@H](O)[C@@H]1O ?
> 8.00

And for C[C@H](Nc1nc(Cl)nc2c1ccn2[C@@H]1O[C@H](COCP(=O)(O)O)[C@@H](O)[C@H]1O)c1ccc(F)cc1 ?
7.00 to 8.00

And for O=P(O)(O)COC[C@H]1O[C@@H](n2ccc3c(NC4CCCC4)nc(I)nc32)[C@H](O)[C@@H]1O ?
> 8.00

And for N#Cc1cn([C@@H]2O[C@H](COCP(=O)(O)O)[C@@H](O)[C@H]2O)c2nc(Cl)nc(NC3CCCC3)c12 ?
6.00 to 7.00

And for C[C@H](c1ccccc1)N(C)c1nc(Cl)nc2c1ccn2[C@@H]1O[C@H](COCP(=O)(OCOC(=O)C(C)(C)C)OCOC(=O)C(C)(C)C)[C@@H](O)[C@H]1O ?
< 6.00
